Hey, just so you know, these numbers are from paper PMC7956567.

experiment: Solubility by NMR method with imidazole as internal standard; format: physicochemical; conditions: 1 M sulfuric acid, aqueous buffer, thermodynamic from solid, 1 M sulfuric acid; freshly obtained product, first polymorph; NMR method; read-out: Solubility of first polymorph in 1 M sulfuric acid
reported-property: solubility (mM)
Please respond with the number in mM and leave the unit unwritten.

# lookup: solubility of `Cc1c(O)c(CN2CCOCC2)c(C)c(O)c1CN1CCOCC1`
240

====

assay: Solubility by NMR method with imidazole as internal standard; assay type: physicochemical; conditions: water; disodium salt; NMR method with imidazole as internal standard; read-out: Aqueous solubility
reported-property: solubility (mM)
Please respond with the number in mM and leave the unit unwritten.

# lookup: solubility of O=C1c2ccc(S(=O)(=O)[O-])cc2C(=O)c2ccc(S(=O)(=O)[O-])cc21.[Na+].[Na+] [2,6-AQDSNa2, reference compound]
40

====

assay: Solubility by NMR method with imidazole as internal standard; assay type: physicochemical; conditions: 1 M sulfuric acid; one year later, new polymorph; method not given; read-out: Solubility in 1 M sulfuric acid one year later
reported-property: solubility

# lookup: solubility of Oc1cc(CN2CCOCC2)c(O)cc1CN1CCOCC1 [DMHQ]
< 100 mM

====

experiment: Solubility by NMR method with imidazole as internal standard; type: physicochemical; details: 1 M acid, counter ion Cl−, thermodynamic from solid, 1 M acid, counter ion Cl−; NMR method, validated by gravimetric analysis; read-out: Solubility in 1 M acid, Cl−
reported-property: solubility
Quick note: number first, unit second.

# lookup: solubility of Oc1cc(CN2CCOCC2)c(O)cc1CN1CCOCC1 [DMHQ]
30 mM

====

test: Solubility by NMR method with imidazole as internal standard; format: physicochemical; details: 1 M acid, counter ion PO3 3− (phosphate), aqueous buffer, thermodynamic from solid, 1 M acid, counter ion PO3 3− [sic] (phosphate); read-out: Solubility in 1 M acid, PO3 3−
Quick reference: solubility of the listed items.
Please respond with the number in mM and leave the unit unwritten.

# lookup: solubility of `Oc1cc(CN2CCOCC2)c(O)cc1CN1CCOCC1`
530

# lookup: solubility of `Cc1c(O)c(CN2CCOCC2)c(C)c(O)c1CN1CCOCC1`
400

# lookup: solubility of `Cc1c(O)c(C)c(CN2CCOCC2)c(O)c1CN1CCOCC1`
550

====

experiment: Solubility by NMR method with imidazole as internal standard; format: physicochemical; details: 1 M acid, counter ion ClO4−, aqueous buffer, thermodynamic from solid, 1 M acid, counter ion ClO4−; read-out: Solubility in 1 M acid, ClO4−
reported-property: solubility
Quick note: number first, unit second.

# lookup: solubility of Oc1cc(CN2CCOCC2)c(O)cc1CN1CCOCC1 [DMHQ]
10 mM
